Test system: MCF7
assay.notes: Cytotoxicity against human MCF7 cells assessed as reduction in cell viability by SRB assay
Format: functional, cell-based
Lab note: cut-off is 8 µM. Strictly less in IC50 is True. Exactly 8 µM or more is False.

Examples with answers:
1) Cc1c2ccncc2c(C)c2c1[nH]c1ccccc12	True
2) CC(=O)O[C@@H]1CC[C@]2(C)[C@H](CC[C@]3(CNc4cccc(F)c4)O[C@H](C4=CCOC4=O)C[C@H]32)[C@]1(C)CO[Si](C(C)C)(C(C)C)C(C)C	False
3) CC(=O)O[C@@H]1CC[C@]2(C)[C@H](CC[C@]3(CNc4ccc(Br)cc4)O[C@H](C4=CCOC4=O)C[C@H]32)[C@]1(C)CO[Si](c1ccccc1)(c1ccccc1)C(C)(C)C	False
4) CC(=O)OC[C@@]1(C)[C@H]2CC[C@]3(CNc4cccc(F)c4)O[C@H](C4=CCOC4=O)C[C@H]3[C@]2(C)CC[C@H]1OC(C)=O	True
5) CC(=O)O[C@@H]1CC[C@]2(C)[C@H](CC[C@]3(CNc4cccc(F)c4)O[C@H](C4=CCOC4=O)C[C@H]32)[C@]1(C)CO[Si](C)(C)C(C)(C)C	False

QUERY: Lab log: compare recorded IC50 with 8 µM; is it strictly lower for CC(=O)O[C@@H]1CC[C@]2(C)[C@H](CC[C@]3(CNc4ccccc4F)O[C@H](C4=CCOC4=O)C[C@H]32)[C@]1(C)COC(c1ccccc1)(c1ccccc1)c1ccccc1 ?
RESULT: False

QUERY: # check: IC50 < 8 µM for CC(=O)OC[C@@]1(C)[C@H]2CC[C@]3(CNc4ccc(Br)cc4)O[C@H](C4=CCOC4=O)C[C@H]3[C@]2(C)CC[C@H]1OC(C)=O
RESULT: True

---

assay.notes: Cytotoxicity against rat ASK cells assessed as reduction in cell viability by SRB assay
Assay type: functional, cell-based
parameter: pIC50
Convention used: pIC50 is expressed as -log10 of the molar concentration.

Examples with their reported pIC50 follow.
1) COc1ccc(NC[C@]23CC[C@@H]4[C@](C)(CO[Si](C)(C)C(C)(C)C)[C@H](OC(C)=O)CC[C@@]4(C)[C@@H]2C[C@@H](C2=CCOC2=O)O3)cc1OC	5.29
2) CC(=O)O[C@@H]1CC[C@]2(C)[C@H](CC[C@]3(CNc4ccccc4)O[C@H](C4=CCOC4=O)C[C@H]32)[C@]1(C)CO[Si](C)(C)C(C)(C)C	5.23
3) COc1ccc(NC[C@]23CC[C@@H]4[C@](C)(COC(c5ccccc5)(c5ccccc5)c5ccccc5)[C@H](OC(C)=O)CC[C@@]4(C)[C@@H]2C[C@@H](C2=CCOC2=O)O3)cc1OC	5.19

Consider the additional compound presented here.
QUERY: Any idea what pIC50 was measured for CC(=O)OC[C@@]1(C)[C@H]2CC[C@]3(CNc4ccccc4F)O[C@H](C4=CCOC4=O)C[C@H]3[C@]2(C)CC[C@H]1OC(C)=O ?
RESULT: 4.56

---

assay.notes: Cytotoxicity against rat ASK cells assessed as reduction in cell viability by SRB assay
Format: functional, cell-based
// reported IC50 per item
Just the number please, in µM, no unit attached.

1) CC(=O)OC[C@@]1(C)[C@H]2CC[C@]3(CNc4ccc(Br)cc4)O[C@H](C4=CCOC4=O)C[C@H]3[C@]2(C)CC[C@H]1OC(C)=O	8.4

QUERY: Quick one: IC50 of COc1ccc(NC[C@]23CC[C@@H]4[C@](C)(CO[Si](c5ccccc5)(c5ccccc5)C(C)(C)C)[C@H](OC(C)=O)CC[C@@]4(C)[C@@H]2C[C@@H](C2=CCOC2=O)O3)cc1OC ?
RESULT: 9.37

QUERY: Need IC50, item CC(=O)O[C@@H]1CC[C@]2(C)[C@H](CC[C@]3(CNc4ccccc4F)O[C@H](C4=CCOC4=O)C[C@H]32)[C@]1(C)CO[Si](c1ccccc1)(c1ccccc1)C(C)(C)C
RESULT: 39.7

---

assay.notes: Cytotoxicity against rat ASK cells assessed as reduction in cell viability by SRB assay
Assay type: functional, cell-based
parameter: pIC50
Worth noting: pIC50 values are minus log10 of concentrations stated in mol/L.

Study these solved cases before continuing.
1. CC(=O)O[C@@H]1CC[C@]2(C)[C@H](CC[C@]3(CNc4ccccc4F)O[C@H](C4=CCOC4=O)C[C@H]32)[C@]1(C)CO[Si](C)(C)C(C)(C)C	5.48
2. CC(=O)O[C@@H]1CC[C@]2(C)[C@H](CC[C@]3(CNc4cccc(F)c4)O[C@H](C4=CCOC4=O)C[C@H]32)[C@]1(C)CO[Si](C(C)C)(C(C)C)C(C)C	5.16
3. COc1ccc(NC[C@]23CC[C@@H]4[C@](C)(CO[Si](C(C)C)(C(C)C)C(C)C)[C@H](OC(C)=O)CC[C@@]4(C)[C@@H]2C[C@@H](C2=CCOC2=O)O3)cc1OC	5.34
4. CC(=O)O[C@@H]1CC[C@]2(C)[C@H](CC[C@]3(CNc4ccccc4)O[C@H](C4=CCOC4=O)C[C@H]32)[C@]1(C)COC(c1ccccc1)(c1ccccc1)c1ccccc1	4.54

QUERY: State the recorded pIC50 for this entry: CC(=O)O[C@@H]1CC[C@]2(C)[C@H](CC[C@]3(CNc4cccc(F)c4)O[C@H](C4=CCOC4=O)C[C@H]32)[C@]1(C)CO[Si](c1ccccc1)(c1ccccc1)C(C)(C)C
RESULT: 4.35

---

pIC50 reference
Test system: P388
assay.notes: Cytotoxicity against mouse P388 cells assessed as reduction in cell viability by SRB assay
Assay type: functional, cell-based
Note on pIC50: it is the negative log10 of concentration, concentration in mol/L.

1. CC(=O)O[C@@H]1CC[C@]2(C)[C@H](CC[C@]3(CNc4ccccc4)O[C@H](C4=CCOC4=O)C[C@H]32)[C@]1(C)CO[Si](C(C)C)(C(C)C)C(C)C	5.18
2. COc1ccc(NC[C@]23CC[C@@H]4[C@](C)(CO[Si](C)(C)C(C)(C)C)[C@H](OC(C)=O)CC[C@@]4(C)[C@@H]2C[C@@H](C2=CCOC2=O)O3)cc1OC	5.26

QUERY: Given COc1ccc(NC[C@]23CC[C@@H]4[C@](C)(CO[Si](C(C)C)(C(C)C)C(C)C)[C@H](OC(C)=O)CC[C@@]4(C)[C@@H]2C[C@@H](C2=CCOC2=O)O3)cc1OC , state its recorded pIC50.
RESULT: 5.30

---

Each entry below carries its reported IC50.
Test system: HT-29
assay.notes: Cytotoxicity against human HT-29 cells assessed as reduction in cell viability by SRB assay
Assay type: functional, cell-based
Could you give me the number in µM? Just the number is fine.

Example compounds with recorded IC50:
1) CC(=O)O[C@@H]1CC[C@]2(C)[C@H](CC[C@]3(CNc4cccc(F)c4)O[C@H](C4=CCOC4=O)C[C@H]32)[C@]1(C)CO[Si](C(C)C)(C(C)C)C(C)C	30.1
2) COc1ccc(NC[C@]23CC[C@@H]4[C@](C)(CO[Si](C)(C)C(C)(C)C)[C@H](OC(C)=O)CC[C@@]4(C)[C@@H]2C[C@@H](C2=CCOC2=O)O3)cc1OC	6.16

Switching to the query record.
QUERY: Which IC50 is listed for CC(=O)OC[C@@]1(C)[C@H]2CC[C@]3(CNc4ccccc4F)O[C@H](C4=CCOC4=O)C[C@H]3[C@]2(C)CC[C@H]1OC(C)=O ?
RESULT: 6.5

---

Tested on: MCF7
assay.notes: Cytotoxicity against human MCF7 cells assessed as reduction in cell viability by SRB assay
Format: functional, cell-based
pIC50: −log10 of the molar value.
// Not met strictly below 5 in pIC50; Met otherwise

Known results for molecules:
1. CC(=O)O[C@@H]1CC[C@]2(C)[C@H](CC[C@]3(CNc4ccccc4)O[C@H](C4=CCOC4=O)C[C@H]32)[C@]1(C)CO[Si](c1ccccc1)(c1ccccc1)C(C)(C)C	Not met
2. CC(=O)O[C@@H]1CC[C@]2(C)[C@H](CC[C@]3(CNc4ccccc4F)O[C@H](C4=CCOC4=O)C[C@H]32)[C@]1(C)CO[Si](C)(C)C(C)(C)C	Met
3. COc1ccc(NC[C@]23CC[C@@H]4[C@](C)(CO[Si](C)(C)C(C)(C)C)[C@H](OC(C)=O)CC[C@@]4(C)[C@@H]2C[C@@H](C2=CCOC2=O)O3)cc1OC	Met

QUERY: API: above_or_equal(metric=pIC50, cutoff=5) for item CC(=O)O[C@@H]1CC[C@]2(C)[C@H](CC[C@]3(CNc4ccc(Br)cc4)O[C@H](C4=CCOC4=O)C[C@H]32)[C@]1(C)CO[Si](C(C)C)(C(C)C)C(C)C
RESULT: Not met

QUERY: Please indicate if the recorded pIC50 for CC(=O)O[C@@H]1CC[C@]2(C)[C@H](CC[C@]3(CNc4cccc(F)c4)O[C@H](C4=CCOC4=O)C[C@H]32)[C@]1(C)CO[Si](c1ccccc1)(c1ccccc1)C(C)(C)C meets or exceeds 5.
RESULT: Not met

QUERY: Reported pIC50 reaches at least 5 for COc1ccc(NC[C@]23CC[C@@H]4[C@](C)(CO[Si](c5ccccc5)(c5ccccc5)C(C)(C)C)[C@H](OC(C)=O)CC[C@@]4(C)[C@@H]2C[C@@H](C2=CCOC2=O)O3)cc1OC ?
RESULT: Not met

QUERY: Threshold query (pIC50 >= 5) on CC(=O)O[C@@H]1CC[C@]2(C)[C@H](CC[C@]3(CNc4ccc(Br)cc4)O[C@H](C4=CCOC4=O)C[C@H]32)[C@]1(C)COC(c1ccccc1)(c1ccccc1)c1ccccc1
RESULT: Not met

QUERY: Record CC(=O)O[C@@H]1CC[C@]2(C)[C@H](CC[C@]3(CNc4ccccc4F)O[C@H](C4=CCOC4=O)C[C@H]32)[C@]1(C)CO[Si](C(C)C)(C(C)C)C(C)C ; criterion: pIC50 no lower than 5. Met?
RESULT: Not met
